Examples of compounds with documented log10 Ki follow.
- assay.system: mouse TAAR1 (Mus musculus, UniProt Q923Y8)
- Construct: expressed in transfected cells; host or cells: HEK293 cells (ATCC # CRL-1573), stably transfected with pIRESneo2 expression plasmid; membranes prepared
- Sequence (Q923Y8 whole entry): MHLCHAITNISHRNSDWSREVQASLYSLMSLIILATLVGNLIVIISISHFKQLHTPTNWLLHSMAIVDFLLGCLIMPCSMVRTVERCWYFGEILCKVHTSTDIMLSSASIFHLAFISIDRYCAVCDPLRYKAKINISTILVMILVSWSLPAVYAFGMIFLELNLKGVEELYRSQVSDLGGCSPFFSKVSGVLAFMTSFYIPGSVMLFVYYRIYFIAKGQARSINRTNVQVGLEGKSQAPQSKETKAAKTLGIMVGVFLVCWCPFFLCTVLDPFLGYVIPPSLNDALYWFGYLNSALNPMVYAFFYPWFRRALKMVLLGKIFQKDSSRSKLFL
- experimental.protocol: Radioligand binding assay on membranes of HEK293 cells stably expressing TAAR1
- experimental.context: mouse TAAR1; radioligand [3H]-rac-2-(1,2,3,4-tetrahydro-1-naphthyl)-2-imidazoline at 60 nM; 4° C., 30 minutes
quantity.measured: log10 Ki (log10 of the value in µM)

Cc1ccccc1C(C)Nc1ncc[nH]1 (racemic) [Example 21]	-0.09
COC(Cc1ncc[nH]1)c1cccc(Cl)c1 (stereo not shown) [Example 1]	-0.11
Cc1cccc(CNc2ncc[nH]2)c1 [Example 11]	-0.03
Fc1cccc(CNc2ncc[nH]2)c1 [Example 16]	-0.01
CC(Nc1ncc[nH]1)c1cccc(Cl)c1Cl (racemic) [Example 22]	-1.12
CC(Nc1ncc[nH]1)c1ccccc1 (racemic) [Example 9]	-0.34
c1ccc2cc(CNc3ncc[nH]3)ccc2c1 [Example 24]	-0.17
